TARGET_OF_ASSAY: SsoPTP (Saccharolobus solfataricus, UniProt Q97VZ7)
Sequence (Q97VZ7 1-161): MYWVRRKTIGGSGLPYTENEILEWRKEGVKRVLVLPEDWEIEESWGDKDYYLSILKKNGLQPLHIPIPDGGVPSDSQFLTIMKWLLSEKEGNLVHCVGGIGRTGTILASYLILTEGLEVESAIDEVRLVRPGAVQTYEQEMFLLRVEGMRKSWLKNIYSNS
RUN_DESCRIPTION: Inhibition of SsoPTP activity by buffers, pNPP as substrate
RUN_PARAMETERS: pNPP substrate, 100 mM sodium acetate buffer pH 5.0, inhibitor 5–400 mM

{"columns": ["SMILES_DATA", "Ki"],
 "data": [
  ["O=S(=O)(O)CCCNC1CCCCC1", "54 mM"]
]}

* * *

TARGET_OF_ASSAY: SsoPTP (Saccharolobus solfataricus, UniProt Q97VZ7)
RUN_DESCRIPTION: Inhibition of SsoPTP activity by buffers, pNPP as substrate
pKi: −log10 of the molar value.
The reader will find reported pKi values listed item by item below.

{"columns": ["COMPOUND", "pKi"],
 "data": [
  ["O=C(O)CC(O)(CC(=O)O)C(=O)O [Citric acid]", 2.10],
  ["O=S(=O)(O)CCN1CCN(CCO)CC1 [HEPES]", 1.36]
]}

Ref: paper PMC8561395
